# fold change of Tryptamine concentration listing for each entry below
Test system: Clostridium sporogenes DSM 1664
Assay: fold change of Tryptamine concentration vs plate DMSO controls (fold change (ratio)); higher = more amine produced
Settings: 20 µM; incubation time: 27 h, anaerobic, 37 °C
Counter-ions that a name gives are not always drawn.

{"Compound": "CN1CCN(c2c(F)cc3c(=O)c(C(=O)O)cn4c3c2SCC4)CC1", "fold change of Tryptamine concentration": 0.0448}
{"Compound": "CO[C@H]1C[C@H](O[C@H]2[C@H](C)[C@@H](O[C@@H]3O[C@H](C)C[C@H](N(C)C)[C@H]3OC(C)=O)[C@@H](C)C[C@@]3(CO3)C(=O)[C@H](C)[C@@H](OC(C)=O)[C@@H](C)[C@@H](C)OC(=O)[C@@H]2C)O[C@@H](C)[C@@H]1OC(C)=O", "fold change of Tryptamine concentration": 0.344}
{"Compound": "CC(C)(c1cc(Br)c(O)c(Br)c1)c1cc(Br)c(O)c(Br)c1", "fold change of Tryptamine concentration": 0.0168}
{"Compound": "CCn1cc(C(=O)O)c(=O)c2cc(F)c(N3CCNCC3)nc21", "fold change of Tryptamine concentration": 0.0376}
{"Compound": "CC(=O)NC[C@H]1CN(c2ccc(N3CCOCC3)c(F)c2)C(=O)O1", "fold change of Tryptamine concentration": 0.0345}
{"Compound": "CCn1cc(C(=O)O)c(=O)c2cc3c(cc21)OCO3", "fold change of Tryptamine concentration": 0.0475}
{"Compound": "Cc1ncc([N+](=O)[O-])n1CCO", "fold change of Tryptamine concentration": 0.0183}
{"Compound": "COc1cccc(OC)c1C(=O)N[C@@H]1C(=O)N2[C@@H]1SC(C)(C)[C@@H]2C(=O)O [Methicillin sodium]", "fold change of Tryptamine concentration": 0.417}
{"Compound": "CO/N=C(\\C(=O)N[C@@H]1C(=O)N2C(C(=O)O)=C(COC(N)=O)CS[C@H]12)c1ccco1 [Cefuroxime sodium salt]", "fold change of Tryptamine concentration": 0.0242}
{"Compound": "C=CC1=C(C(=O)O)N2C(=O)[C@@H](NC(=O)/C(=N\\OCC(=O)O)c3csc(N)n3)[C@H]2SC1", "fold change of Tryptamine concentration": 0.887}
{"Compound": "CC[C@@]1([C@@H]2O[C@@H]([C@H]3O[C@@](O)(CO)[C@H](C)C[C@@H]3C)C[C@@H]2C)CC[C@H]([C@]2(C)CC[C@]3(C[C@H](O)[C@@H](C)[C@@H]([C@@H](C)[C@@H](OC)[C@H](C)C(=O)O)O3)O2)O1 [Monensin sodium salt]", "fold change of Tryptamine concentration": 0.267}

Values compiled from the supplement of paper PMC12494721.
